organism: Cavia porcellus; assay: Selectivity ratio of Ki for sigma-1 receptor in guinea pig brain membranes to Ki for sigma-2 receptor in guinea pig brain membranes; type: cell membranes
Readout Label: Ratio Ki
Could you keep your reply to the number by itself?

Sample records with Ratio Ki:
Compound: c1ccc(CC2CCN(CC3CSC(c4ccccc4)(c4ccccc4)O3)CC2)cc1 (stereo not given)
Readout Label: Ratio Ki
Value Observed: 2

Compound: c1ccc(CN2CCN(CC3CSC(c4ccccc4)(c4ccccc4)S3)CC2)cc1 (stereo not given)
Readout Label: Ratio Ki
Value Observed: 8

Compound: c1ccc(CN2CCN(CC3COC4(CCCCC4)O3)CC2)cc1 (stereo not given)
Readout Label: Ratio Ki
Value Observed: 47

Compound: c1ccc(CC2CCN(CC3CCC(c4ccccc4)(c4ccccc4)O3)CC2)cc1 (stereo not given)
Readout Label: Ratio Ki
Value Observed: 1

Compound: c1ccc(CC2CCN(CCOC(c3ccccc3)c3ccccc3)CC2)cc1
Readout Label: Ratio Ki
Value Observed: 3

Compound: c1ccc(CN2CCN(CCOC(c3ccccc3)c3ccccc3)CC2)cc1
Readout Label: Ratio Ki
Value Observed: 1

For the compound c1ccc(CN2CCN(C[C@@H]3CO[C@@](c4ccccc4)(C4CCCCC4)O3)CC2)cc1 (relative stereo) , give its reported Ratio Ki.
1

Specify reported Ratio Ki for the compound shown: c1ccc(CN2CCN(CC3CCC(c4ccccc4)(c4ccccc4)O3)CC2)cc1 (stereo not given)
3

Output Ratio Ki of OCC(CN1CCC(Cc2ccccc2)CC1)OC(c1ccccc1)c1ccccc1 (stereo not given)
1

----------
target: Sigma non-opioid intracellular receptor 1 (Cavia porcellus); test: Displacement of [3H]-(+)-pentazocine from sigma-1 receptor in guinea pig brain membranes after 150 mins by liquid scintillation counting method
Sequence (Q60492 whole entry): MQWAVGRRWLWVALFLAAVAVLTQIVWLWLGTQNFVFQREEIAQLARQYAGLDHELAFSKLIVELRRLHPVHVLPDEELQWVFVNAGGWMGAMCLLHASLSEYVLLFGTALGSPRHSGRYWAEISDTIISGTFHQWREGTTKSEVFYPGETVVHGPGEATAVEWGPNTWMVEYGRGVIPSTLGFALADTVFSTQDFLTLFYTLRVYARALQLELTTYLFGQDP
pKi: −log10 of the molar value.
Give T when the value for pKi is at least 8. Give F when it is less.

Compound: c1ccc(CN2CCN(CC3CSC(c4ccccc4)(c4ccccc4)O3)CC2)cc1 (centres undefined)
Qualitative Label: F
//
Compound: c1ccc(CN2CCN(CC3CCC(c4ccccc4)(c4ccccc4)O3)CC2)cc1 (centres undefined)
Qualitative Label: F
//
Compound: c1ccc(CN2CCN(C[C@H]3CO[C@@](c4ccccc4)(C4CCCCC4)O3)CC2)cc1 (relative stereo)
Qualitative Label: T
//
Compound: c1ccc(CN2CCN(CCOC(c3ccccc3)c3ccccc3)CC2)cc1
Qualitative Label: F

Could you tell me if the measured pKi of c1ccc(CN2CCN(CC3COC(C4CCCCC4)(C4CCCCC4)O3)CC2)cc1 (centres undefined) reaches 8 or more?
T

Could you tell me if the measured pKi of O[C@@H]1[C@@H](CN2CCC(Cc3ccccc3)CC2)CCC1(c1ccccc1)c1ccccc1 (relative stereo) reaches 8 or more?
F

Does the reported pKi for O=C1C(CN2CCN(Cc3ccccc3)CC2)CCC1(c1ccccc1)c1ccccc1 (centres undefined) fall at or above the 8 mark?
F

Evaluate c1ccc(CN2CCN(CC3CSC(c4ccccc4)(c4ccccc4)S3)CC2)cc1 (centres undefined) : pKi at minimum 8?
F

----------
experiment: Displacement of [3H]DTG from sigma-2 receptor in guinea pig brain membranes after 120 mins by liquid scintillation counting method; format: cell membranes, Cavia porcellus, Membrane
Parameter pKi: see the listing below.
Lab note: record just the number, no unit beside it.

Worked cases, pKi given:
Molecule: c1ccc(CN2CCN(CC3CSC(c4ccccc4)(c4ccccc4)S3)CC2)cc1 (stereo unspecified)
pKi: 5.64
//
Molecule: c1ccc(CC2CCN(CC3COC(c4ccccc4)(c4ccccc4)O3)CC2)cc1 (stereo unspecified)
pKi: 8.2
//
Molecule: O=C1C(CN2CCN(Cc3ccccc3)CC2)CCC1(c1ccccc1)c1ccccc1 (stereo unspecified)
pKi: 4.9
//
Molecule: c1ccc(CN2CCN(CC3COc4ccccc4O3)CC2)cc1 (stereo unspecified)
pKi: 7.55
//
Molecule: c1ccc(CN2CCN(CCOC(c3ccccc3)c3ccccc3)CC2)cc1
pKi: 7.95
//
Molecule: c1ccc(CN2CCN(CC3CCC(c4ccccc4)(c4ccccc4)O3)CC2)cc1 (stereo unspecified)
pKi: 6.65
//
Molecule: c1ccc(CN2CCN(CC3COC4(CCCCC4)O3)CC2)cc1 (stereo unspecified)
pKi: 7.46
//
Molecule: c1ccc(CN2CCN(CC3COC(c4ccccc4)(c4ccccc4)O3)CC2)cc1 (stereo unspecified)
pKi: 8.38

Give the measured pKi for OCC(CN1CCN(Cc2ccccc2)CC1)OC(c1ccccc1)c1ccccc1 (stereo unspecified)
7.75

For the molecule c1ccc(CC2CCN(CC3CSC(c4ccccc4)(c4ccccc4)O3)CC2)cc1 (stereo unspecified) , give its reported pKi.
7.55

Fill in pKi for record OCC(CN1CCC(Cc2ccccc2)CC1)OC(c1ccccc1)c1ccccc1 (stereo unspecified)
6.56

For the molecule c1ccc(CC2CCN(CC3COC4(CCCCC4)O3)CC2)cc1 (stereo unspecified) , give its reported pKi.
7.72

Consider the molecule O=C1C(CN2CCC(Cc3ccccc3)CC2)CCC1(c1ccccc1)c1ccccc1 (stereo unspecified) and give its recorded pKi.
5.66
